Catalogue of binders with associated kon
tested-target: Recombinant human his-tagged IGF 1R extracellular domain protein (human) (UniProt P08069)
procedure-details: SPR, captured IgG, IGF-1R ECD-his analyte, dissociation pH 6
measured-quantity: kon (M⁻¹ s⁻¹)

>>> data_value("VRDN-02534 (antibody, V domains shown) VH: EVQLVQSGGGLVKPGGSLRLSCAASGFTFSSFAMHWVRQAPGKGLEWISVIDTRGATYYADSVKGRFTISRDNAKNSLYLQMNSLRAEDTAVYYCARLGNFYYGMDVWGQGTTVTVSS VL: EIVLTQSPGTLSVSPGERATLSCRASQSIHSSLHWYQQKPGQAPRLLIKYASQSLSGIPDRFSGSGSGTDFTLTISRLEPEDFAVYYCHQSSRLPHTFGQGTKVEIK")
29800
>>> data_value("VRDN-02501 (antibody, V domains shown) VH: EVQLVQSGGGLVKPGGSLRLSCAASHFTFSSFAMHWVRQAPGKGLEWISVIDTRGATYYADSVKGRFTISRDNAKNSLYLQMNSLRAEDTAVYYCARLGNFYYGMDVWGQGTTVTVSS VL: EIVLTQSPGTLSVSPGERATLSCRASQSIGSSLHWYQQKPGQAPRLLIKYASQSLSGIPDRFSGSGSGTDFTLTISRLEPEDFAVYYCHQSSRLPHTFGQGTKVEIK")
38600
>>> data_value("VRDN-02523 (antibody, V domains shown) VH: EVQLVQSGGGLVKPGGSLRLSCAASGFTFSSFAMHWVRQAPGKGLEWISVIDTRGATYYADSVKGRFTISRDNAKNSLYLQMNSLRAEDTAVYYCARLGNFYHGMDVWGQGTTVTVSS VL: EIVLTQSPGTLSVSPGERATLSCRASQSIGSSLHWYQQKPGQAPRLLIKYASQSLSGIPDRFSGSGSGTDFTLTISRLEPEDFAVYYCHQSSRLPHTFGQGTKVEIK")
27800
